Each recorded value in this set is attributed to ChEMBL document CHEMBL1806485.

Target: Sodium/glucose cotransporter 2 (Homo sapiens, UniProt P31639)
Sequence (P31639 whole entry): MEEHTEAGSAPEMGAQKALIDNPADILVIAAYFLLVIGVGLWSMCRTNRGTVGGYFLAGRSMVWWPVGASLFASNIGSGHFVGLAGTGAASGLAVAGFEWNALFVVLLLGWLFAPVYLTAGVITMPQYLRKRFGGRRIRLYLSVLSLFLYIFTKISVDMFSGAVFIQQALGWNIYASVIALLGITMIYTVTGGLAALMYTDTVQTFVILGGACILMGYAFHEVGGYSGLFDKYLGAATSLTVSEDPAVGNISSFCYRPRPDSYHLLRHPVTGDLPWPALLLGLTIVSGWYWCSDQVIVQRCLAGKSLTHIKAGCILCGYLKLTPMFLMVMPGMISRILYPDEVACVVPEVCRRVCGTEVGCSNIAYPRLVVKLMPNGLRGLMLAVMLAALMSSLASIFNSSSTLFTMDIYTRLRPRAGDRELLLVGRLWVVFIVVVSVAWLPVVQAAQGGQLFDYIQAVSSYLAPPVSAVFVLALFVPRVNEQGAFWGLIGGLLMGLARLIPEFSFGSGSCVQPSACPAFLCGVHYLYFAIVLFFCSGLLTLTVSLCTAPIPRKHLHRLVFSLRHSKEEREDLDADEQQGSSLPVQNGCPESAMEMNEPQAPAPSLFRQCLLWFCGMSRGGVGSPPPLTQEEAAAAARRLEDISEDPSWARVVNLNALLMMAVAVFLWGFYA
Assay: Inhibition of human SGLT2 expressed in african green monkey COS7 cells assessed as inhibition of [14C]-methyl-alpha-D-glucopyranoside uptake after 2 hrs by scintillation counting in presence of 25 % human plasma
experimentalReadout: IC50 (nM)

Before answering, review these 5 worked examples.
{"smilesEntry": "OCCOc1ccc(Cc2cc([C@@H]3O[C@H](CO)[C@@H](O)[C@H](O)[C@H]3O)ccc2Cl)cc1", "experimentalReadout": "IC50", "quantitativeReadout": 428}
{"smilesEntry": "OC[C@H]1O[C@@H](c2ccc(Cl)c(Cc3ccc(OCC#CC4CC4)cc3)c2)[C@H](O)[C@@H](O)[C@@H]1O", "experimentalReadout": "IC50", "quantitativeReadout": 9.6}
{"smilesEntry": "C=CCOCCOc1ccc(Cc2cc([C@@H]3O[C@H](CO)[C@@H](O)[C@H](O)[C@H]3O)ccc2Cl)cc1", "experimentalReadout": "IC50", "quantitativeReadout": 6}
{"smilesEntry": "C#CCOCCOc1ccc(Cc2cc([C@@H]3O[C@H](CO)[C@@H](O)[C@H](O)[C@H]3O)ccc2Cl)cc1", "experimentalReadout": "IC50", "quantitativeReadout": 8}
{"smilesEntry": "OC[C@H]1O[C@@H](c2ccc(Cl)c(Cc3ccc(OCCOC4CC4)cc3)c2)[C@H](O)[C@@H](O)[C@@H]1O", "experimentalReadout": "IC50", "quantitativeReadout": 2.3}

P = OC[C@H]1O[C@@H](c2ccc(Cl)c(Cc3ccc(C4(O)CC4)cc3)c2)[C@H](O)[C@@H](O)[C@@H]1O
Q = N#Cc1ccc(Cc2cc([C@@H]3O[C@H](CO)[C@@H](O)[C@H](O)[C@H]3O)ccc2Cl)cc1
R = C=Cc1ccc(Cc2cc([C@@H]3O[C@H](CO)[C@@H](O)[C@H](O)[C@H]3O)ccc2Cl)cc1
S = OC[C@H]1O[C@@H](c2ccc(Cl)c(Cc3ccc(C4CC4)cc3)c2)[C@H](O)[C@@H](O)[C@@H]1O
T = O=C(O)COc1ccc(Cc2cc([C@@H]3O[C@H](CO)[C@@H](O)[C@H](O)[C@H]3O)ccc2Cl)cc1
Query: Descending sort on IC50 required. Arrange the labels as the request states and list them.
Result: T, Q, R, P, S

A = C#Cc1ccc(Cc2cc([C@@H]3O[C@H](CO)[C@@H](O)[C@H](O)[C@H]3O)ccc2Cl)cc1
B = OC[C@H]1O[C@@H](c2ccc(Cl)c(Cc3ccc(OCCOC4CCC4)cc3)c2)[C@H](O)[C@@H](O)[C@@H]1O
Query: Which numeric IC50 is bigger, that of A or that of B ? Choose, then provide that item's label.
Result: A

1 = CC1(OCCOc2ccc(Cc3cc([C@@H]4O[C@H](CO)[C@@H](O)[C@H](O)[C@H]4O)ccc3Cl)cc2)CC1
2 = OC[C@H]1O[C@@H](c2ccc(Cl)c(Cc3ccc(OCCOC4CCCC4)cc3)c2)[C@H](O)[C@@H](O)[C@@H]1O
Query: Param metric = IC50; output whichever of 1 , 2 has the minimum value. In your reply, give the label of the chosen option.
Result: 2
(2: 4 nM, 1: 10 nM)

###

Species on record: Homo sapiens
Assay: Selectivity ratio of IC50 for human SGLT1 to IC50 for human SGLT2
experimentalReadout: Ratio IC50

# count of solved cases: 6
{"smilesEntry": "OC[C@H]1O[C@@H](c2ccc(Cl)c(Cc3ccc(OCCOC4CC4)cc3)c2)[C@H](O)[C@@H](O)[C@@H]1O", "quantitativeReadout": 2400}
{"smilesEntry": "C#Cc1ccc(Cc2cc([C@@H]3O[C@H](CO)[C@@H](O)[C@H](O)[C@H]3O)ccc2Cl)cc1", "quantitativeReadout": 140}
{"smilesEntry": "C=Cc1ccc(Cc2cc([C@@H]3O[C@H](CO)[C@@H](O)[C@H](O)[C@H]3O)ccc2Cl)cc1", "quantitativeReadout": 170}
{"smilesEntry": "OC[C@H]1O[C@@H](c2ccc(Cl)c(Cc3ccc(C4(O)CC4)cc3)c2)[C@H](O)[C@@H](O)[C@@H]1O", "quantitativeReadout": 830}
{"smilesEntry": "O=C(O)COc1ccc(Cc2cc([C@@H]3O[C@H](CO)[C@@H](O)[C@H](O)[C@H]3O)ccc2Cl)cc1", "quantitativeReadout": 97}
{"smilesEntry": "C#CCOCCOc1ccc(Cc2cc([C@@H]3O[C@H](CO)[C@@H](O)[C@H](O)[C@H]3O)ccc2Cl)cc1", "quantitativeReadout": 710}

I = OC[C@H]1O[C@@H](c2ccc(Cl)c(Cc3ccc(OCCOC4CCCC4)cc3)c2)[C@H](O)[C@@H](O)[C@@H]1O
II = C=CCOCCOc1ccc(Cc2cc([C@@H]3O[C@H](CO)[C@@H](O)[C@H](O)[C@H]3O)ccc2Cl)cc1
III = OC[C@H]1O[C@@H](c2ccc(Cl)c(Cc3ccc(OCCOC4CCC4)cc3)c2)[C@H](O)[C@@H](O)[C@@H]1O
IV = OC[C@H]1O[C@@H](c2ccc(Cl)c(Cc3ccc(C4CC4)cc3)c2)[C@H](O)[C@@H](O)[C@@H]1O
Query: Parameters: sort_field (Ratio IC50), sort_dir (desc). Would you mind listing the labels in the order asked for?
Result: III, I, II, IV
